Entry source: patent US9730914B2

target: JAK3 (Homo sapiens); construct: made in house; host or cells: E. coli BL21-derived host (T7 phage) or HEK-293; assay: Kinase competition binding assay (Kd, qPCR readout), JAK3; conditions: Kd class, JAK3; read-out: JAK3 Activity Level
Sequence (P52333 811-1124 limits assumed): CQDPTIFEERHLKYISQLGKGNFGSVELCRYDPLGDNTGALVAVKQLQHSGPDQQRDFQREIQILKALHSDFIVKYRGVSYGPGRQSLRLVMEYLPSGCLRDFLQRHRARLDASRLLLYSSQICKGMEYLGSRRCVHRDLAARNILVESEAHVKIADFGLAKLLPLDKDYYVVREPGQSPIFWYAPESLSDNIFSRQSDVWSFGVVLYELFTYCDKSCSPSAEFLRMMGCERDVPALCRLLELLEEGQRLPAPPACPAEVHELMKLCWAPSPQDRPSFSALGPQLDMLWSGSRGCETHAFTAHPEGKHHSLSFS
Measurement kind: Kd

# example entries with known answers
NC(=O)c1c(Nc2ccc(CN3CCCC3)cc2)n[nH]c1NCc1ccc(O)cc1 [reference compound]; < 50 nM
NC(=O)c1c(Nc2ccc(-c3cccnc3)cc2)n[nH]c1NCc1ccc(O)cc1 [reference compound]; < 50 nM
CN(C)C1CCN(c2ccc(Nc3n[nH]c(NCc4ccc(O)cc4)c3C(N)=O)cc2)CC1 [reference compound]; < 50 nM
NC(=O)c1c(Nc2ccc(N)cc2)n[nH]c1NCc1ccc(O)cc1 [reference compound]; 100 to 1000 nM

Read the next record carefully.
Problem: Kindly indicate its recorded Kd. Item: NC(=O)c1c(Nc2ccc(N3CCSCC3)cc2)n[nH]c1NCc1ccc(O)cc1 [reference compound]
Solution: < 50 nM
